Where do the numbers come from? From PubChem BioAssay AID1259310.

Entries and their normalized activity (activation)
target-entity: F-box/WD repeat-containing protein 7 (Homo sapiens)
assay: FBW7 E3 ligase activators, primary screen, biochemical, AlphaScreen, human (AID 1259310);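 note: purified mutant Fbw7 with reduced substrate affinity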
run-conditions: AlphaScreen FBW7–phospho-cyclin E peptide binding, activator screen; at 26.1 µM; stronger effect = higher value
Among all 650,000 compounds or so, about 850 (0.13%) were called active. Many of the other results were omitted from the sample, so actives are more common in it than they were.
Express the result in % but write the number alone.

# example entries with known answers
>>> recorded_number("COc1ccc(C2CC(c3cccs3)=NN2c2ccccc2)cc1 (stereo not drawn)")
8.78
>>> recorded_number("CN(C)c1ccccc1C(=O)c1ccccc1")
2.06
>>> recorded_number("CC(=O)N(C)c1nc(-c2cccc(N(C)C)c2)ccc1C(=O)NC1CCCCC1")
1.86
>>> recorded_number("O=C(COc1ccc(Cl)cc1)NNC(=O)C(Cc1ccccc1)N1C(=O)c2ccccc2C1=O (stereo not drawn)")
0.06
>>> recorded_number("NNC(=O)CNC(=O)CNS(=O)(=O)c1ccc([N+](=O)[O-])cc1")
1.97
>>> recorded_number("Cc1ccccc1Nc1nc(-c2c(C)nc3ncccn23)cs1")
0.01

# query: normalized activity (activation) | item COc1ccccc1NC(=O)c1c(C)nc(SCC(=O)c2ccccc2)c(C#N)c1-c1ccc(C)o1 | system: F-box/WD repeat-containing protein 7 (Homo sapiens)
-0.03

Lab request: please report normalized activity (activation) under test system F-box/WD repeat-containing protein 7 (Homo sapiens) for COc1cccc(NC(=O)Nc2ccc(-c3cn4c(C)c(C)nnc4n3)cc2)c1
1.87

---

target-entity: F-box/WD repeat-containing protein 7 (Homo sapiens)
assay: FBW7 E3 ligase activators, primary screen, biochemical, AlphaScreen, human (AID 1259310);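 note: purified mutant Fbw7 with reduced substrate affinity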
run-conditions: AlphaScreen FBW7–phospho-cyclin E peptide binding, activator screen; at 26.1 µM; stronger effect = higher value
Out of some 650,000 compounds screened, about 850 (0.13%) were called active. The entries come from a sample that favours actives as a whole.
# normalized activity (activation) per record follows
Dear colleague, please return just the value in %, with no unit written.

Guide cases for normalized activity (activation), answers given:
>>> recorded_number("CCOc1ccc(NC(C)C(=O)N/N=C/c2ccccc2O)cc1 (stereo not given)")
-0.35
>>> recorded_number("CCCCNC(=O)CSc1nnc2c(n1)[nH]c1ccccc12")
0.16
>>> recorded_number("COc1ccc(Cl)cc1C(=O)Nc1cccc(-c2nc3cc(Cl)ccc3o2)c1C")
0.2

# normalized activity (activation) lookup, item O=C(CSc1n[nH]c(-c2cccs2)n1)NC(=O)NC12CC3CC(CC(C3)C1)C2
-0.03

Need normalized activity (activation), item COc1cccc(-c2nc(-c3ccccc3)c(-c3ccccc3)[nH]2)c1O
-0.07
